- System: Mus musculus
- assay-overview: Anticonvulsant activity in ip dosed Swiss albino mouse assessed as minimum drug concentration required for inhibition of pentylenetetrazole-induced seizures in half or more of mouse after 0.5 hrs by scPTZ test
- Assay type: functional
measurement-label: Activity (mg/kg)
The reply should contain only the number, in mg/kg.

- compound: "O=C(N/N=C/c1ccc(Br)cc1)Nc1nc2c(ccc3ccccc32)s1"
  u: "mg/kg"
  quantitative-readout: 100
- compound: "COc1cc(/C=N/NC(=O)Nc2nc3c(ccc4ccccc43)s2)ccc1O"
  u: "mg/kg"
  quantitative-readout: 300
- compound: "C/C(=N\\NC(=O)Nc1nc2c(ccc3ccccc32)s1)c1ccccc1"
  u: "mg/kg"
  quantitative-readout: 300
- compound: "NC(=O)N1c2ccccc2C=Cc2ccccc21 [CARBAMAZEPINE]"
  u: "mg/kg"
  quantitative-readout: 100

Assay Mus musculus, sample CCCC(CCC)C(=O)O [VALPROIC ACID] , Activity read: 300

----------
Measured Activity by item
- Test system: Mus musculus
- assay-overview: Neurotoxicity in ip dosed Swiss albino mouse assessed as minimum drug concentration required for falling off the rotarod by half or more of mouse after 4 hrs by rotarod test
- Assay type: toxicity, organism-based
- assay-context: in vivo
The reply should contain only the number, in mg/kg.

Please review the entries below; each comes with its answer.
- compound: "C/C(=N\\NC(=O)Nc1nc2c(ccc3ccccc32)s1)c1ccc(C)cc1"
  Activity (mg/kg): 300
- compound: "O=C(N/N=C/c1ccc(Br)cc1)Nc1nc2c(ccc3ccccc32)s1"
  Activity (mg/kg): 300
- compound: "COc1cc(/C=N/NC(=O)Nc2nc3c(ccc4ccccc43)s2)ccc1O"
  Activity (mg/kg): 100
- compound: "O=C(N/N=C/c1ccccc1O)Nc1nc2c(ccc3ccccc32)s1"
  Activity (mg/kg): 100
- compound: "O=C(N/N=C/c1ccc(Cl)cc1)Nc1nc2c(ccc3ccccc32)s1"
  Activity (mg/kg): 300

Assay Mus musculus, sample NC(=O)N1c2ccccc2C=Cc2ccccc21 [CARBAMAZEPINE] , Activity read: 300

Assay Mus musculus, sample O=C(N/N=C/c1ccccc1)Nc1nc2c(ccc3ccccc32)s1 , Activity read: 300

Assay Mus musculus, sample O=C1NC(=O)C(c2ccccc2)(c2ccccc2)N1 , Activity read: 100

Assay Mus musculus, sample O=C(N/N=C/c1ccc(F)cc1)Nc1nc2c(ccc3ccccc32)s1 , Activity read: 300

Assay Mus musculus, sample COc1cc(/C=N/NC(=O)Nc2nc3c(ccc4ccccc43)s2)cc(OC)c1OC , Activity read: 100

----------
Measured Activity by item
- System: Mus musculus
- assay-overview: Anticonvulsant activity in ip dosed Swiss albino mouse assessed as minimum drug concentration required for inhibition of maximal electroshock-induced seizure in half or more of mouse after 4 hrs by MES test
- Type: functional

Please review the entries below; each comes with its answer.
- mol-smiles: "O=C(N/N=C/c1ccc([N+](=O)[O-])cc1)Nc1nc2c(ccc3ccccc32)s1"
  Activity: "300 mg/kg"
- mol-smiles: "O=C(N/N=C1\\C(=O)Nc2ccccc21)Nc1nc2c(ccc3ccccc32)s1"
  Activity: "300 mg/kg"
- mol-smiles: "O=C1NC(=O)C(c2ccccc2)(c2ccccc2)N1"
  Activity: "30 mg/kg"
- mol-smiles: "O=C(N/N=C/c1ccc(F)cc1)Nc1nc2c(ccc3ccccc32)s1"
  Activity: "300 mg/kg"
- mol-smiles: "COc1cc(/C=N/NC(=O)Nc2nc3c(ccc4ccccc43)s2)ccc1O"
  Activity: "300 mg/kg"

Let us examine a further case.
Reported Activity of O=C(N/N=C/c1ccc(Br)cc1)Nc1nc2c(ccc3ccccc32)s1 : 100 mg/kg
